Please respond with reported MIC for every item in the list.
Tested on: Mycobacterium tuberculosis
Experiment: Antibacterial activity against Mycobacterium tuberculosis clinical isolate K16 assessed as inhibition of bacterial growth incubated for 6 days by microplate alamar blue assay
Type: functional
Settings: K16, 144 h, time 6 day
Write down the numeric answer in µg/mL and omit the unit.

Reported MIC, molecule `Cc1cc(Nc2nc(Nc3ccc(F)cc3)ncc2Cl)c(OC(C)C)cc1C1CCNCC1` : ____ 2

Sample `Cc1cc(Nc2nc(-c3ccccc3)ncc2Cl)c(OC(C)C)cc1C1CCNCC1` — what was its MIC? 1

* * *

Assay: AUC(0 to t) in Sprague-Dawley rat at 15 mg/kg, po measured for 24 hrs by LC-MS analysis
Format: ADME, organism-based
Set-up: dose 15 mg/kg, time 24 hrs, route po
Settings: in vivo
Measurement label: AUC(0-t) at 24 h (µg·h/mL)
Dear colleague, please return just the value in µg·h/mL, with no unit written.

Please report the recorded AUC(0-t) at 24 h for `Cc1cc(Nc2nc(-c3ccccc3)ncc2Cl)c(OC(C)C)cc1C1CCNCC1` . 2.08
